Entries and their Therm_solubility values follow.
assay: Thermodynamic solubility of compound in PBS at pH 7.4 […] by shake-flask method; type: physicochemical; settings: buffer

| Compound Structure String | Rel | Therm_solubility / µM |
| --- | --- | --- |
| CCC(=O)c1ccc(-c2cn(-c3ccc(CCN4CCc5cc(OC)c(OC)cc5C4)cc3)nn2)cc1NC(=O)c1cccc([N+](=O)[O-])n1 | < | 0.1 |
| COC(=O)c1ccc(Br)cc1NC(=O)c1cc(=O)c2ccccc2o1 | = | 0.109 |
| Cc1ccc(-c2cn(CCN3CCOCC3)nn2)c(NC(=O)c2cc(=O)c3ccccc3o2)c1 | = | 1.144 |

---

Some compounds, each annotated with its measured pIC50.
biological target: Broad substrate specificity ATP-binding cassette transporter ABCG2 (Homo sapiens); assay: Inhibition of human ABCG2 in human MCF7/Topo cells assessed as accumulation of substrate Hoechst […] stain measured after 2 hrs by fluorometric microplate reader assay; assay type: cell-based; details: read-out: IC50
pIC50: −log10 of the molar value.

| Compound Structure String | pIC50 |
| --- | --- |
| CCC(=O)c1ccc(-c2cn(-c3ccc(CCN4CCc5cc(OC)c(OC)cc5C4)cc3)nn2)cc1NC(=O)c1cc2ccccc2o1 | 6.92 |
| CCC(=O)c1ccc(-c2cn(CCN3CCCC3)nn2)cc1NC(=O)c1cc(=O)c2ccccc2o1 | 6.80 |
| CCC(=O)c1ccc(-c2cn(-c3ccc(CCN4CCc5cc(OC)c(OC)cc5C4)cc3)nn2)cc1NC(=O)c1ccc(OC)cn1 | 6.94 |
| CCC(=O)c1ccc(-c2cn(-c3ccc(CCN4CCc5cc(OC)c(OC)cc5C4)cc3)nn2)cc1NC(=O)c1cc(=O)c2ccccc2o1 | 7.10 |
| COC(=O)c1ccc(Br)cc1NC(=O)c1ccc2ccccc2n1 | 5.72 |
| Cc1ccc(-c2cn(CCN3CCOCC3)nn2)c(NC(=O)c2cc(=O)c3ccccc3o2)c1 | 6.73 |
| CCC(=O)c1ccc(-c2cn(-c3ccc(CCN4CCc5cc(OC)c(OC)cc5C4)cc3)nn2)cc1NC(=O)c1ccc2ccccc2c1 | 6.60 |
| CCC(=O)c1ccc(-c2cn(-c3ccc(CCN4CCc5cc(OC)c(OC)cc5C4)cc3)nn2)cc1NC(=O)c1cccc([N+](=O)[O-])n1 | 7.15 |

---

Recorded log10(Therm_solubility) values for a group of compounds are listed next.
assay: Thermodynamic solubility of compound in PBS at pH 7.4 […] by shake-flask method; type: physicochemical; conditions: buffer
Measurement Name: log10(Therm_solubility) (log10 of the value in µM)

| Compound Structure String | log10(Therm_solubility) |
| --- | --- |
| CCC(=O)c1ccc(-c2cn(-c3ccc(CCN4CCc5cc(OC)c(OC)cc5C4)cc3)nn2)cc1NC(=O)c1cccc(C)n1 | -0.35 |
| CCC(=O)c1ccc(-c2cn(-c3ccc(CCN4CCc5cc(OC)c(OC)cc5C4)cc3)nn2)cc1NC(=O)c1cc(=O)c2ccccc2o1 | -0.83 |
| CCC(=O)c1ccc(-c2cn(CCN3CCCC3)nn2)cc1NC(=O)c1cc(=O)c2ccccc2o1 | 0.17 |
| CCC(=O)c1ccc(-c2cn(-c3ccc(CCN4CCc5cc(OC)c(OC)cc5C4)cc3)nn2)cc1NC(=O)c1cccc(O)n1 | -0.07 |
| CCC(=O)c1ccc(-c2cn(-c3ccc(CCN4CCc5cc(OC)c(OC)cc5C4)cc3)nn2)cc1NC(=O)c1ccc2ccccc2n1 | -1.11 |
| Cc1ccc(-c2cn(CCN3CCCC3)nn2)c(NC(=O)c2cc(=O)c3ccccc3o2)c1 | 0.09 |
| CCC(=O)c1ccc(-c2cn(CCN3CCOCC3)nn2)cc1NC(=O)c1cc(=O)c2ccccc2o1 | 0.00 |
| CCC(=O)c1ccc(-c2cn(-c3ccc(CCN4CCc5cc(OC)c(OC)cc5C4)cc3)nn2)cc1NC(=O)c1ccc(OC)cn1 | -0.92 |
| CCC(=O)c1ccc(-c2cn(CCO)nn2)cc1NC(=O)c1cc(=O)c2ccccc2o1 | -0.24 |

---

target: ABCG2 (Homo sapiens); assay: Substrate activity at ABCG2 in human MCF7/Topo cells assessed as increase in ATPase activity measured after 1 hr by colorimetric assay relative to sulfasalazine; assay type: cell-based; conditions: read-out: Imax

| Compound Structure String | Emax at 1 h (%) |
| --- | --- |
| Cc1ccc(-c2cn(CCN3CCCC3)nn2)c(NC(=O)c2cc(=O)c3ccccc3o2)c1 | 29 |
| Cc1ccc(-c2cn(CCN3CCOCC3)nn2)c(NC(=O)c2cc(=O)c3ccccc3o2)c1 | 46 |

---

Reported pIC50 values for the following compounds.
target: Broad substrate specificity ATP-binding cassette transporter ABCG2 (Homo sapiens, UniProt Q9UNQ0); experiment: Inhibition of human ABCG2 in human MCF7/Topo cells assessed as accumulation of substrate Hoechst […] stain measured after 2 hrs by fluorometric microplate reader assay; format: cell-based; settings: read-out: IC50
pIC50: −log10 of the molar value.

| Compound Structure String | pIC50 |
| --- | --- |
| CCC(=O)c1ccc(-c2cn(-c3ccc(CCN4CCc5cc(OC)c(OC)cc5C4)cc3)nn2)cc1NC(=O)c1cccc(C)n1 | 6.78 |
| COC(=O)c1ccc(Br)cc1NC(=O)c1cc(=O)c2ccccc2o1 | 6.85 |
| CCC(=O)c1ccc(-c2cn(-c3ccc(CCN4CCc5cc(OC)c(OC)cc5C4)cc3)nn2)cc1NC(=O)c1ccc2c(n1)CCCC2 | 6.74 |
| Cc1ccc(-c2cn(CCO)nn2)c(NC(=O)c2cc(=O)c3ccccc3o2)c1 | 6.35 |

---

biological target: UniProt:Q9UNQ0; assay: Inhibition of human ABCG2 in human MCF7/Topo cells assessed as accumulation of substrate Hoechst […] stain measured after 2 hrs by fluorometric microplate reader assay; format: cell-based; conditions: read-out: IC50
pIC50: −log10 of the molar value.

| Compound Structure String | Rel | pIC50 |
| --- | --- | --- |
| COc1cc2c(cc1OC)CN(CCc1ccc(-n3cc(-c4ccccc4)nn3)cc1)CC2 | = | 5.44 |
| CCC(=O)c1ccc(-c2cn(-c3ccc(CCN4CCc5cc(OC)c(OC)cc5C4)cc3)nn2)cc1NC(=O)c1cccc(N)n1 | = | 7.09 |
| CCC(=O)c1ccc(-c2cn(CCO)nn2)cc1NC(=O)c1cc(=O)c2ccccc2o1 | < | 5.96 |
| CCC(=O)c1ccc(-c2cn(-c3ccc(CCN4CCc5cc(OC)c(OC)cc5C4)cc3)nn2)cc1NC(=O)c1cccc(OC)n1 | = | 6.49 |
| Cc1ccc(-c2cn(CCN3CCCC3)nn2)c(NC(=O)c2cc(=O)c3ccccc3o2)c1 | = | 6.96 |
| CCC(=O)c1ccc(-c2cn(CCN3CCOCC3)nn2)cc1NC(=O)c1cc(=O)c2ccccc2o1 | = | 6.51 |
| CCC(=O)c1ccc(-c2cn(-c3ccc(CCN4CCc5cc(OC)c(OC)cc5C4)cc3)nn2)cc1NC(=O)c1cccc(Cl)n1 | = | 6.94 |
| CCC(=O)c1ccc(-c2cn(-c3ccc(CCN4CCc5cc(OC)c(OC)cc5C4)cc3)nn2)cc1NC(=O)c1cccc(O)n1 | = | 6.48 |

---

Let's look at some compounds and their measured Emax at 2 h, 10 µM.
Target: UniProtKB Q9UNQ0
Sequence (Q9UNQ0 whole entry): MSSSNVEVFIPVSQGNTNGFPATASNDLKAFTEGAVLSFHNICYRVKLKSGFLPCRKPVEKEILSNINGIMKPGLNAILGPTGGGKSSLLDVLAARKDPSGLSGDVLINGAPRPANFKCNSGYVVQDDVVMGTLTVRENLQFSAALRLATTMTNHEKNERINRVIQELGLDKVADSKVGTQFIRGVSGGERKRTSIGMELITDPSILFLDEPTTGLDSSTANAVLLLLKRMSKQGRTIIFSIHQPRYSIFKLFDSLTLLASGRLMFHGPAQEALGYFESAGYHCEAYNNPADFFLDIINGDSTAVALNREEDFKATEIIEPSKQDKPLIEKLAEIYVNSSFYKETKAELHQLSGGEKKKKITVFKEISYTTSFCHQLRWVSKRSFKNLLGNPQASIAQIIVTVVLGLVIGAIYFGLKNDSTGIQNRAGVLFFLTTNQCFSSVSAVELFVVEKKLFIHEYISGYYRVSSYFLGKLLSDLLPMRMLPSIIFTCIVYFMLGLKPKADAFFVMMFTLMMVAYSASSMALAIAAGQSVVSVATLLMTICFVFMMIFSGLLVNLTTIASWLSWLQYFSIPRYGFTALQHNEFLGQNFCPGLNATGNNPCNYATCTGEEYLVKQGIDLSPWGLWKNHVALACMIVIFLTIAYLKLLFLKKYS
Test: Inhibition of human ABCG2 in human MCF7/Topo cells assessed as accumulation of substrate Hoechst […] stain at 10 uM measured after 2 hrs by fluorometric microplate reader assay relative to FTC
Type: cell-based
Conditions: read-out: Imax

| Compound Structure String | Emax at 2 h, 10 µM, % |
| --- | --- |
| CCC(=O)c1ccc(-c2cn(-c3ccc(CCN4CCc5cc(OC)c(OC)cc5C4)cc3)nn2)cc1NC(=O)c1ccc2c(n1)CCCC2 | 63 |
| CCC(=O)c1ccc(-c2cn(-c3ccc(CCN4CCc5cc(OC)c(OC)cc5C4)cc3)nn2)cc1NC(=O)c1cccc(C)n1 | 81 |
| CCC(=O)c1ccc(-c2cn(-c3ccc(CCN4CCc5cc(OC)c(OC)cc5C4)cc3)nn2)cc1NC(=O)c1ccc(OC)cn1 | 68 |
| Cc1ccc(-c2cn(CCN3CCCC3)nn2)c(NC(=O)c2cc(=O)c3ccccc3o2)c1 | 103 |

src = ChEMBL document CHEMBL4732100
